Molecular target: T1, HSV-1 POL (UL30 protein, catalytic subunit of the HSV-1 DNA polymerase) (HSV-1, UniProt P04293 1-1235)
T1 construct: mature; Purified from Sf cells infected with baculovirus AcUL30
T1 sequence (looked up): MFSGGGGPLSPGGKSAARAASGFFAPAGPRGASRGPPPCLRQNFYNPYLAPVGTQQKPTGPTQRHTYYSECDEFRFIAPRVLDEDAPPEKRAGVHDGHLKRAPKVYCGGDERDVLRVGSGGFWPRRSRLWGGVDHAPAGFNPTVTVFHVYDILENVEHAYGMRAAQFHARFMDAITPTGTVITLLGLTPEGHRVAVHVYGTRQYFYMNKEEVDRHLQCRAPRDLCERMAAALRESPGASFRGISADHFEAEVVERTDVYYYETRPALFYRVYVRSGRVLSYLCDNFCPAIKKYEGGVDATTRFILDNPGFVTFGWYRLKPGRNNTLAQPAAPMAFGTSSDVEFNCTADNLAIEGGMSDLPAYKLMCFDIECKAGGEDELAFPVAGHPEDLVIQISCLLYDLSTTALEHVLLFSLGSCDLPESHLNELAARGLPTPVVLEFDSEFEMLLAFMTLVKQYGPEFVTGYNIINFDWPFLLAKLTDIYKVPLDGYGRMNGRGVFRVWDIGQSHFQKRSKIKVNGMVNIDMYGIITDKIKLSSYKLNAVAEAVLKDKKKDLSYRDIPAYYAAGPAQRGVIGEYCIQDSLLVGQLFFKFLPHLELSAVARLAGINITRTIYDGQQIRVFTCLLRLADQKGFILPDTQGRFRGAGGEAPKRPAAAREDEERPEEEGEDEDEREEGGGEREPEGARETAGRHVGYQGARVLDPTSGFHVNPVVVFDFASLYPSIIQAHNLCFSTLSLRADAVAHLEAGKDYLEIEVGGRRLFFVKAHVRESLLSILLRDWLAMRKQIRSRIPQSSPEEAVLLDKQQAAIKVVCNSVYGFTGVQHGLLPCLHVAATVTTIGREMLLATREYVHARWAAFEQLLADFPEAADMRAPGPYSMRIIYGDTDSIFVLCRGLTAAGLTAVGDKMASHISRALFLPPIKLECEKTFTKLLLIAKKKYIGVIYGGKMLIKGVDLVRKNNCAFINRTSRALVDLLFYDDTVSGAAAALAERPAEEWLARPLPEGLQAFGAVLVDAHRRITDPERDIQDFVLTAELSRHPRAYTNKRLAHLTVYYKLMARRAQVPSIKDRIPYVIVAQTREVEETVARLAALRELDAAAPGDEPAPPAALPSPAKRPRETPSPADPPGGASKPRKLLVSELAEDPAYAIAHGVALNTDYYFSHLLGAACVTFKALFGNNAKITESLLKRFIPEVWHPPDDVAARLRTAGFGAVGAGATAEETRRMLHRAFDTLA
Test: competition ELISA of FIG. 7: peptide incubated with POL 15 min, then added to UL8-coated wells
ASSAY ENDPOINT: IC50

| BINDER | REPORTED MEASUREMENT |
| --- | --- |
| IELVFTGVLAGVWGEGGKFV (Synthetic 20-residue peptide from HSV-1 UL8) [Peptide 7 (Table 2), UL8 amino acids 719-738] | ~1000 nM |
